# Study System: Substance-P receptor (Cavia porcellus)
# Assay Explanation: Antagonist activity at guinea pig NK1 receptor assessed as effect on ileum contractions
# Format: functional, tissue-based
Recorded Endpoint: Kb (nM)

>  <Molecule>
Cc1ccccc1-c1ncnc2c1C(=O)N(Cc1cc(C(F)(F)F)cc(C(F)(F)F)c1)C[C@H](C)CO2

>  <Kb, nM>
12.6

$$$$

[I] CC(=O)N1CCN(c2nc3c(c(-c4ccccc4C)n2)C(=O)N(Cc2cc(C(F)(F)F)cc(C(F)(F)F)c2)C[C@@H](C)CO3)CC1
[II] CC(=O)N1C(C)CN(c2nc3c(c(-c4ccccc4C)n2)C(=O)N(Cc2cc(C(F)(F)F)cc(C(F)(F)F)c2)C[C@H](C)CO3)CC1C (some centres not stated)
[III] Cc1ccccc1-c1nc(N(C)C)nc2c1C(=O)N(Cc1cc(C(F)(F)F)cc(C(F)(F)F)c1)C[C@@H](C)CO2
[IV] CC(=O)N1CCN(c2nc3c(c(-c4ccccc4C)n2)C(=O)N(Cc2cc(C(F)(F)F)cc(C(F)(F)F)c2)CCCO3)CC1
[V] Cc1ccccc1-c1ncnc2c1C(=O)N(Cc1cc(C(F)(F)F)cc(C(F)(F)F)c1)CCCO2
Problem: Sort these molecules on Kb so the largest reading comes first. Please reply with the labels ordered as requested. Many thanks.
Solution: III, V, I, II, IV
(III: 52.9 nM, V: 11.6 nM, I: 0.345 nM, II: 0.217 nM, IV: 0.105 nM)

[a] Cc1ccccc1-c1nc(N(C)C)nc2c1C(=O)N(Cc1cc(C(F)(F)F)cc(C(F)(F)F)c1)C[C@H](C)CO2
[b] CC(=O)N1C(C)CN(c2nc3c(c(-c4ccccc4C)n2)C(=O)N(Cc2cc(C(F)(F)F)cc(C(F)(F)F)c2)CCCO3)CC1C (configuration not stated)
[c] Cc1ccccc1-c1ncnc2c1C(=O)N(Cc1cc(C(F)(F)F)cc(C(F)(F)F)c1)C[C@@H](C)CO2
[d] CC(=O)N1CCN(c2nc3c(c(-c4ccccc4C)n2)C(=O)N(Cc2cc(C(F)(F)F)cc(C(F)(F)F)c2)C[C@H](C)CO3)CC1
Problem: Could you please order the items by Kb, going from the lowest number to the highest? Please reply with the labels ordered as requested. Many thanks.
Solution: d, a, b, c
(d: 0.139 nM, a: 0.427 nM, b: 0.679 nM, c: 162 nM)
